Provenance of the data: ChEMBL document CHEMBL1128431

Tested on: Mus musculus
experimental-protocol: % Pu(IV) excreted at 0-4 hr in urine under the effect of 30uM/kg(po, gastric intubation) of ligand administered 3 min after iv injection of Pu(IV) citrate
Assay type: functional
The following compounds are shown together with reported ID values.

[
  {
    "compound-smiles": "Cn1ccc(C(=O)NCCCCCNC(=O)c2ccn(C)c(=O)c2O)c(O)c1=O",
    "ID": "10%"
  },
  {
    "compound-smiles": "Cn1ccc(C(=O)NCCOCCNC(=O)c2ccn(C)c(=O)c2O)c(O)c1=O",
    "ID": "14%"
  },
  {
    "compound-smiles": "Cn1ccc(C(=O)NCCCCNC(=O)c2ccn(C)c(=O)c2O)c(O)c1=O",
    "ID": "26%"
  },
  {
    "compound-smiles": "Cn1ccc(C(=O)NCCN(CCNC(=O)c2ccn(C)c(=O)c2O)CCN(CCNC(=O)c2ccn(C)c(=O)c2O)CCNC(=O)c2ccn(C)c(=O)c2O)c(O)c1=O",
    "ID": "12%"
  },
  {
    "compound-smiles": "Cn1ccc(C(=O)NCCCN(CCCNC(=O)c2ccn(C)c(=O)c2O)CCCNC(=O)c2ccn(C)c(=O)c2O)c(O)c1=O",
    "ID": "1.8%"
  },
  {
    "compound-smiles": "Cn1ccc(C(=O)NCCN(CCCCN(CCNC(=O)c2ccn(C)c(=O)c2O)CCNC(=O)c2ccn(C)c(=O)c2O)CCNC(=O)c2ccn(C)c(=O)c2O)c(O)c1=O",
    "ID": "20%"
  },
  {
    "compound-smiles": "Cn1ccc(C(=O)NCCN(CCNC(=O)c2ccn(C)c(=O)c2O)CCNC(=O)c2ccn(C)c(=O)c2O)c(O)c1=O",
    "ID": "21%"
  },
  {
    "compound-smiles": "O=C(NCCCN(CCCCN(CCCNC(=O)c1cccc(=O)n1O)C(=O)c1cccc(=O)n1O)C(=O)c1cccc(=O)n1O)c1cccc(=O)n1O",
    "ID": "23%"
  },
  {
    "compound-smiles": "Cn1ccc(C(=O)NCCN(CCCN(CCNC(=O)c2ccn(C)c(=O)c2O)CCNC(=O)c2ccn(C)c(=O)c2O)CCNC(=O)c2ccn(C)c(=O)c2O)c(O)c1=O",
    "ID": "16%"
  },
  {
    "compound-smiles": "Cn1ccc(C(=O)NCCCCCCNC(=O)c2ccn(C)c(=O)c2O)c(O)c1=O",
    "ID": "7.3%"
  },
  {
    "compound-smiles": "Cn1ccc(C(=O)NCc2cc(CNC(=O)c3ccn(C)c(=O)c3O)cc(CNC(=O)c3ccn(C)c(=O)c3O)c2)c(O)c1=O",
    "ID": "6.4%"
  },
  {
    "compound-smiles": "CC(=O)N(O)CCCCCNC(=O)CCC(=O)N(O)CCCCCNC(=O)CCC(=O)N(O)CCCCCNC(=O)c1ccn(C)c(=O)c1O",
    "ID": "2.4%"
  },
  {
    "compound-smiles": "Cn1ccc(C(=O)NCCCNC(=O)c2ccn(C)c(=O)c2O)c(O)c1=O",
    "ID": "16%"
  }
]

---

Measured ID of individual entries
Test system: Mus musculus
experimental-protocol: Percent of Pu(IV) retained after 24 hours in liver of mice under the effect of 30 umol/kg (i.p.) of ligand administered 1 hr after iv injection of Pu(IV) citrate
Format: functional

[
  {
    "compound-smiles": "Cn1ccc(C(=O)NCCN(CCNC(=O)c2ccn(C)c(=O)c2O)CCNC(=O)c2ccn(C)c(=O)c2O)c(O)c1=O",
    "ID, %": 5.5
  },
  {
    "compound-smiles": "Cn1ccc(C(=O)NCCN(CCCN(CCNC(=O)c2ccn(C)c(=O)c2O)CCNC(=O)c2ccn(C)c(=O)c2O)CCNC(=O)c2ccn(C)c(=O)c2O)c(O)c1=O",
    "ID, %": 10
  },
  {
    "compound-smiles": "Cn1ccc(C(=O)NCCN(CCNC(=O)c2ccn(C)c(=O)c2O)CCN(CCNC(=O)c2ccn(C)c(=O)c2O)CCNC(=O)c2ccn(C)c(=O)c2O)c(O)c1=O",
    "ID, %": 3.8
  },
  {
    "compound-smiles": "Cn1ccc(C(=O)NCCCN(CCCNC(=O)c2ccn(C)c(=O)c2O)CCCNC(=O)c2ccn(C)c(=O)c2O)c(O)c1=O",
    "ID, %": 17
  },
  {
    "compound-smiles": "Cn1ccc(C(=O)NCCCNC(=O)c2ccn(C)c(=O)c2O)c(O)c1=O",
    "ID, %": 9.5
  },
  {
    "compound-smiles": "O=C(NCCCN(CCCCN(CCCNC(=O)c1cccc(=O)n1O)C(=O)c1cccc(=O)n1O)C(=O)c1cccc(=O)n1O)c1cccc(=O)n1O",
    "ID, %": 8.9
  },
  {
    "compound-smiles": "O=C(NCc1cc(CNC(=O)c2cccc(=O)n2O)cc(CNC(=O)c2cccc(=O)n2O)c1)c1cccc(=O)n1O",
    "ID, %": 18
  },
  {
    "compound-smiles": "Cn1ccc(C(=O)NCCOCCNC(=O)c2ccn(C)c(=O)c2O)c(O)c1=O",
    "ID, %": 2.7
  },
  {
    "compound-smiles": "Cn1ccc(C(=O)NCCN(CCCCN(CCNC(=O)c2ccn(C)c(=O)c2O)CCNC(=O)c2ccn(C)c(=O)c2O)CCNC(=O)c2ccn(C)c(=O)c2O)c(O)c1=O",
    "ID, %": 14
  },
  {
    "compound-smiles": "Cn1ccc(C(=O)NCCCCCCNC(=O)c2ccn(C)c(=O)c2O)c(O)c1=O",
    "ID, %": 6.5
  },
  {
    "compound-smiles": "Cn1ccc(C(=O)NCc2cc(CNC(=O)c3ccn(C)c(=O)c3O)cc(CNC(=O)c3ccn(C)c(=O)c3O)c2)c(O)c1=O",
    "ID, %": 6.1
  },
  {
    "compound-smiles": "Cn1ccc(C(=O)NCCCCCNC(=O)c2ccn(C)c(=O)c2O)c(O)c1=O",
    "ID, %": 3.1
  },
  {
    "compound-smiles": "Cn1ccc(C(=O)NCCCCNC(=O)c2ccn(C)c(=O)c2O)c(O)c1=O",
    "ID, %": 3.7
  },
  {
    "compound-smiles": "CC(=O)N(O)CCCCCNC(=O)CCC(=O)N(O)CCCCCNC(=O)CCC(=O)N(O)CCCCCNC(=O)c1ccn(C)c(=O)c1O",
    "ID, %": 13
  }
]

---

System: Mus musculus
experimental-protocol: Percent of Pu(IV) retained after 24 hours in skeleton of mice under the effect of 30 umol/kg (i.p.) of ligand administered 1 hr after iv injection of Pu(IV) citrate
Assay type: functional
Let's look at some molecules and their measured ID.

[
  {
    "compound-smiles": "O=C(NCCCN(CCCCN(CCCNC(=O)c1cccc(=O)n1O)C(=O)c1cccc(=O)n1O)C(=O)c1cccc(=O)n1O)c1cccc(=O)n1O",
    "ID, %": 7.5
  },
  {
    "compound-smiles": "Cn1ccc(C(=O)NCCCCCCNC(=O)c2ccn(C)c(=O)c2O)c(O)c1=O",
    "ID, %": 12
  },
  {
    "compound-smiles": "Cn1ccc(C(=O)NCCN(CCNC(=O)c2ccn(C)c(=O)c2O)CCNC(=O)c2ccn(C)c(=O)c2O)c(O)c1=O",
    "ID, %": 11
  },
  {
    "compound-smiles": "Cn1ccc(C(=O)NCCN(CCCN(CCNC(=O)c2ccn(C)c(=O)c2O)CCNC(=O)c2ccn(C)c(=O)c2O)CCNC(=O)c2ccn(C)c(=O)c2O)c(O)c1=O",
    "ID, %": 9.9
  },
  {
    "compound-smiles": "Cn1ccc(C(=O)NCCOCCNC(=O)c2ccn(C)c(=O)c2O)c(O)c1=O",
    "ID, %": 11
  },
  {
    "compound-smiles": "Cn1ccc(C(=O)NCCCN(CCCNC(=O)c2ccn(C)c(=O)c2O)CCCNC(=O)c2ccn(C)c(=O)c2O)c(O)c1=O",
    "ID, %": 14
  },
  {
    "compound-smiles": "Cn1ccc(C(=O)NCCCCCNC(=O)c2ccn(C)c(=O)c2O)c(O)c1=O",
    "ID, %": 10
  },
  {
    "compound-smiles": "CC(=O)N(O)CCCCCNC(=O)CCC(=O)N(O)CCCCCNC(=O)CCC(=O)N(O)CCCCCNC(=O)c1ccn(C)c(=O)c1O",
    "ID, %": 17
  },
  {
    "compound-smiles": "Cn1ccc(C(=O)NCCN(CCNC(=O)c2ccn(C)c(=O)c2O)CCN(CCNC(=O)c2ccn(C)c(=O)c2O)CCNC(=O)c2ccn(C)c(=O)c2O)c(O)c1=O",
    "ID, %": 11
  },
  {
    "compound-smiles": "Cn1ccc(C(=O)NCCN(CCCCN(CCNC(=O)c2ccn(C)c(=O)c2O)CCNC(=O)c2ccn(C)c(=O)c2O)CCNC(=O)c2ccn(C)c(=O)c2O)c(O)c1=O",
    "ID, %": 11
  },
  {
    "compound-smiles": "Cn1ccc(C(=O)NCCCNC(=O)c2ccn(C)c(=O)c2O)c(O)c1=O",
    "ID, %": 14
  },
  {
    "compound-smiles": "Cn1ccc(C(=O)NCc2cc(CNC(=O)c3ccn(C)c(=O)c3O)cc(CNC(=O)c3ccn(C)c(=O)c3O)c2)c(O)c1=O",
    "ID, %": 12
  },
  {
    "compound-smiles": "O=C(NCc1cc(CNC(=O)c2cccc(=O)n2O)cc(CNC(=O)c2cccc(=O)n2O)c1)c1cccc(=O)n1O",
    "ID, %": 17
  },
  {
    "compound-smiles": "Cn1ccc(C(=O)NCCCCNC(=O)c2ccn(C)c(=O)c2O)c(O)c1=O",
    "ID, %": 11
  }
]
